Recorded measurements of remaining activity at 0.1 µM, one per entry
Target: PADI4 (Homo sapiens)
Construct: His6; made in house
Sequence (Q9UM07 whole entry): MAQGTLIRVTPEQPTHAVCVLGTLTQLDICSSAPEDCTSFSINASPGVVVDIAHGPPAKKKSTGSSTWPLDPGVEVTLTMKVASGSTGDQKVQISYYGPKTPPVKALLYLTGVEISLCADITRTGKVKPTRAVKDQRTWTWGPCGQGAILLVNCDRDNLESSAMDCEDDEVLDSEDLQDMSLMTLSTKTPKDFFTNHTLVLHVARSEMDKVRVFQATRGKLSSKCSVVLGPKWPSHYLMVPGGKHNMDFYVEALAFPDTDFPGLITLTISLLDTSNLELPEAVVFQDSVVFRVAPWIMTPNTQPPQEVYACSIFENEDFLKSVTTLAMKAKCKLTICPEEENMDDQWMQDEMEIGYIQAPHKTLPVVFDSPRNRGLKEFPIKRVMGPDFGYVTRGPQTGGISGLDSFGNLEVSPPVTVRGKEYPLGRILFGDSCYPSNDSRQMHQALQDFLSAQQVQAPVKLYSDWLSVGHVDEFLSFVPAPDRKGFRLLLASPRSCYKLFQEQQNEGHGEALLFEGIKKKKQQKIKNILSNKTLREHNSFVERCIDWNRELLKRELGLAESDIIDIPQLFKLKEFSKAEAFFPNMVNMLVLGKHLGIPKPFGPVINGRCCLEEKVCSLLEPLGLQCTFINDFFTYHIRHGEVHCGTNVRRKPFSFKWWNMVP
Assay: COLDER inhibition assay, BAEE substrate, with or without 1 h preincubation
Assay type: biochemical
Details: peptide 0.1 µM, T=0; read-out: PADI4 activity normalised to 0.1% DMSO
Where a SMILES comes first, the peptide text is derived from it. Bridges are numbered along the chain shown (N, C = ends). [ ]: non-standard residue; d: D form. Orn(fluoroacetimidoyl) = N=C(CF)NCCC[C@H](N)C(=O)O
// return the numeric value with its unit appended

CC[C@H](C)[C@@H]1NC(=O)[C@@H](Cc2ccc(O)cc2)NC(=O)CSC[C@@H](C(=O)NCC(N)=O)NC(=O)[C@H](CO)NC(=O)[C@H](CCCNC(=N)CF)NC(=O)[C@H](CC(=O)O)NC(=O)[C@H](CCCNC(=N)CF)NC(=O)[C@H](CC(C)C)NC(=O)CNC(=O)[C@H](Cc2c[nH]c3ccccc23)NC1=O [cP4_2, yIWGL(2)D(2)SCG] ({CH2CO}-[dY]IWGL[Orn(fluoroacetimidoyl)]D[Orn(fluoroacetimidoyl)]SCG-NH2; thioether N-10) ... 108%
N=C(N)NCCC[C@@H]1NC(=O)[C@H](CCCNC(=N)CF)NC(=O)[C@H](CC(=O)O)NC(=O)[C@H](Cc2ccc(O)cc2)NC(=O)[C@H](CCCCN)NC(=O)[C@H](CO)NC(=O)[C@@H](Cc2ccc(O)cc2)NC(=O)CSC[C@@H](C(=O)NCC(N)=O)NC(=O)[C@H](CC(=O)O)NC(=O)[C@H](CCCNC(=N)N)NC(=O)[C@@H]2CCCN2C(=O)[C@H](CO)NC1=O [cP4_4, ySKYD(2)RSPRDCG] ({CH2CO}-[dY]SKYD[Orn(fluoroacetimidoyl)]RSPRDCG-NH2; thioether N-12) ... 90.5%
N=C(N)NCCC[C@@H]1NC(=O)[C@H](CCCCN)NC(=O)[C@H](CC(N)=O)NC(=O)[C@H](Cc2ccccc2)NC(=O)[C@H](CC(=O)O)NC(=O)[C@H](Cc2c[nH]c3ccccc23)NC(=O)[C@H](CC(N)=O)NC(=O)[C@H](CCCNC(=N)CF)NC(=O)[C@H](Cc2ccc(O)cc2)NC(=O)[C@H](Cc2c[nH]c3ccccc23)NC(=O)[C@@H](Cc2ccc(O)cc2)NC(=O)CSC[C@@H](C(=O)NCC(N)=O)NC1=O [cP4_10, yWY(2)NWDFNKRCG] ({CH2CO}-[dY]WY[Orn(fluoroacetimidoyl)]NWDFNKRCG-NH2; thioether N-12) ... 90.6%

Continue with the next compound.
Notebook: pull reported remaining activity at 0.1 µM for PADI4 (Homo sapiens), entry CC(C)[C@@H]1NC(=O)[C@@H](Cc2ccc(O)cc2)NC(=O)CSC[C@@H](C(=O)NCC(N)=O)NC(=O)[C@H](Cc2ccc(O)cc2)NC(=O)[C@H](CCCCN)NC(=O)[C@H](Cc2c[nH]c3ccccc23)NC(=O)[C@H](CCC(=O)O)NC(=O)[C@H](CCCCN)NC(=O)[C@H](CCCNC(=N)CF)NC(=O)[C@H](CO)NC(=O)[C@H](Cc2ccc(O)cc2)NC1=O [cP4_7, yVYS(2)KEWKYCG] ({CH2CO}-[dY]VYS[Orn(fluoroacetimidoyl)]KEWKYCG-NH2; thioether N-11)
100%

Numbers sourced from paper PMC11659602.
